# Assay Overview: activity coefficient (dimensionless); of the first substance listed, at infinite dilution; xn = mol fraction of the nth substance listed
# Condition Notes: 353.15 K; 101 kPa; Liquid; Chromatography; x1 = 0
Parameter threshold = 2. Response is Met when activity coefficient meets or exceeds it, else Not met.

As a guide, the following entries are already answered.
Compound	Class Assignment
CCCCO [butan-1-ol] + NCCCCCCCCCCCCN	Not met
C=CCCC [1-pentene] + NCCCCCCCCCCCCN	Met
CCCCCCCl [1-chlorohexane] + NCCCCCCCCCCCCN	Met

Hi, just wondering whether CCOC(C)=O [ethyl acetate] + NCCCCCCCCCCCCN shows activity coefficient of 2 or higher. Not met

Hi, just wondering whether CCCOC(C)=O [propyl ethanoate] + NCCCCCCCCCCCCN shows activity coefficient of 2 or higher. Not met

Hi, just wondering whether C=CCCCCCC [oct-1-ene] + NCCCCCCCCCCCCN shows activity coefficient of 2 or higher. Met

Hi, just wondering whether CCCCCC [hexane] + NCCCCCCCCCCCCN shows activity coefficient of 2 or higher. Met

Hi, just wondering whether ClC(Cl)(Cl)Cl [tetrachloromethane] + NCCCCCCCCCCCCN shows activity coefficient of 2 or higher. Met

Hi, just wondering whether CCCCCCCC [octane] + NCCCCCCCCCCCCN shows activity coefficient of 2 or higher. Met

Hi, just wondering whether CO [methanol] + NCCCCCCCCCCCCN shows activity coefficient of 2 or higher. Not met

Hi, just wondering whether CCCCOC(C)=O [butyl ethanoate] + NCCCCCCCCCCCCN shows activity coefficient of 2 or higher. Not met
